# Tested on: NCI-H226 lung
# Assay details: NCI tumour cell line growth inhibition, 48 h
// TGI lookup, one value per entry

1) COc1cc(NCCCN=C(N)NC(N)=NC(C)C)c2ncccc2c1 | > 100 µM

For this compound ( Cc1cc(Cc2cc(C)c(NC(=O)C(=O)C3CCC4=C(SC5C=CC=CC5N4)C3=O)c(C(C)C)c2)cc(C(C)C)c1NC(=O)C(=O)C1CCC2=C(SC3C=CC=CC3N2)C1=O (configuration not stated) ), measured TGI is > 100 µM

For this compound ( O=c1[nH]nc(Cc2c[nH]c3ccccc23)o1 ), measured TGI is > 100 µM

For this compound ( CC(=O)Nc1c(C)cc2c(nc3n2CCC3OC(C)=O)c1[N+](=O)[O-] (configuration not stated) ), measured TGI is > 100 µM

For this compound ( CC1CCCC(C(O)CC2CC(=O)NC(=O)C2)C1O (configuration not stated) ), measured TGI is > 100 µM

For this compound ( Cn1cnc([N+](=O)[O-])c1Sc1nccn1-c1cccc2ccccc12 ), measured TGI is 59.6 µM

----------
# Tested on: DMS 114 small cell lung
# Assay details: NCI tumour cell line growth inhibition, 48 h
Measurement kind: TGI

Solved entries (count: 2):
1) O=C(CCN1CCN(c2ccccc2)CC1)N1CCc2c([nH]c3ccccc23)C1c1cccnc1 (configuration not stated) | 27 µM
2) CC(C)([NH-])CO.CC(C)([NH-])CO.[Cl][Cd][Cl] | 46.7 µM

For this compound ( CC(Nc1ccc(S(=O)(=O)N=C(N)N)cc1)c1c2ccccc2nc2ccccc12 (configuration not stated) ), measured TGI is > 100 µM

For this compound ( COc1ccc(-c2cc(=O)c3cc(OC)ccc3[nH]2)cc1 ), measured TGI is > 100 µM

For this compound ( NC(=O)/N=C1/CCC2C3CCCC2C13 ), measured TGI is > 100 µM

For this compound ( COc1ccc(/C(Cl)=C(\C=N/O)c2ccc(OC)c(OC)c2)cc1OC ), measured TGI is > 100 µM

For this compound ( O=c1ncc(F)cn1C1OC(CO)C(O)C1O (configuration not stated) ), measured TGI is > 41.9 µM

----------
# Tested on: CAKI-1 renal
# Assay details: NCI tumour cell line growth inhibition, 48 h
Measurement kind: TGI

Solved entries (count: 5):
1) Cc1ccc(/C(O)=C/C(=O)C(=O)NC23CC4CC(CC(C4)C2)C3)cc1 | > 10 µM
2) CC1=C(O)C(=O)C2C(=O)C1C1Cc3ccccc3C21 (stereo not given) | > 100 µM
3) Cc1c2c(c(O)c3c(O)cccc13)C(=O)C1(O)C(O)=C(C(=O)NCNc3ccc(C(N)=O)cn3)C(=O)C(N(C)C)C1C2 (stereo not given) | 48.4 µM
4) CS(=O)(=O)c1ccc(N=C/C=C/Nc2ccc(S(C)(=O)=O)cc2)cc1 | > 100 µM
5) O=C1CSC(c2ccccc2[N+](=O)[O-])N1c1ccc(-c2ccc(-n3c(-c4ccccc4)nc4ccccc4c3=O)cc2)cc1 (stereo not given) | > 100 µM

For this compound ( COC(=O)c1cc(C(=CCC[C@H]2CC[C@@]3(C)C(CCC4C3CC[C@@]3(C)C4CC[C@@H]3C(C)CCCC(C)C)C2)c2cc(Cl)c(O)c(C(=O)OC)c2)cc(Cl)c1O (stereo not given in full) ), measured TGI is > 10 µM

For this compound ( Cc1cccc(C(C)(C)C)c1NC(=O)CC1C(=O)Nc2ccccc2S1(=O)=O (stereo not given) ), measured TGI is 31.3 µM

For this compound ( CC(=O)OCC1OC(Nn2c(=O)[nH]c3ccccc3c2=O)C(OC(C)=O)C(OC(C)=O)C1OC(C)=O (stereo not given) ), measured TGI is > 100 µM

For this compound ( CC(C)[C@H](NC(=O)[C@H](N)Cc1ccc(N(CCCl)CCCl)cc1)C(=O)O ), measured TGI is > 100 µM

For this compound ( COc1ccc(/C=C2\CCS(=O)(=O)c3ccccc3C2=O)cc1 ), measured TGI is 67.5 µM

For this compound ( COc1cc(C2c3cc4c(cc3OC(NNS(=O)(=O)c3ccc(C)cc3)C2C)OCO4)cc(OC)c1O (stereo not given) ), measured TGI is 32.8 µM

For this compound ( COC(=O)c1cc(O)c2cc3c(cc2c1-c1cc(OC)c(OC)c(OC)c1)OCO3 ), measured TGI is 5.46 µM

For this compound ( CN1C(=O)C2(C=CC(O)CC2)c2ccccc21 (stereo not given) ), measured TGI is > 100 µM

These measurements were taken from PubChem BioAssay (NCI).
